test system: human hepatocellular cells (HepG2); test: Mammalian cell growth inhibition assay, HepG2; type: cell-based; settings: HepG2, 48 h, read-out: Hep G2 EC50
Measurement Name: EC50 (µM)
Answers are plain numbers, in µM.

[ask] Any idea what EC50 came out for CCN(CC)CCCC(C)Nc1c2ccc(Cl)cc2nc2ccc(OC)cc12 (centres unmarked) [Quinacrine] on human hepatocellular cells (HepG2)?
[reply] 14.3

----------
tested on: human lymphocytic cells (CRL-8155); assay: Mammalian cell growth inhibition assay, CRL-8155; format: cell-based; conditions: CRL8155, 48 h, read-out: CLR‐8155 EC50
Measurement Name: pEC50
Give bare numbers, as −log10 of the molar value.

[ask] State the recorded pEC50 for this entry: CCN(CC)CCCC(C)Nc1c2ccc(Cl)cc2nc2ccc(OC)cc12 (centres unmarked)
[reply] 5.26
